molecular target: Tyrosine-protein kinase BTK (Homo sapiens); test: Inhibition of pBTK in human whole blood; type: tissue-based
Sequence (Q06187 whole entry): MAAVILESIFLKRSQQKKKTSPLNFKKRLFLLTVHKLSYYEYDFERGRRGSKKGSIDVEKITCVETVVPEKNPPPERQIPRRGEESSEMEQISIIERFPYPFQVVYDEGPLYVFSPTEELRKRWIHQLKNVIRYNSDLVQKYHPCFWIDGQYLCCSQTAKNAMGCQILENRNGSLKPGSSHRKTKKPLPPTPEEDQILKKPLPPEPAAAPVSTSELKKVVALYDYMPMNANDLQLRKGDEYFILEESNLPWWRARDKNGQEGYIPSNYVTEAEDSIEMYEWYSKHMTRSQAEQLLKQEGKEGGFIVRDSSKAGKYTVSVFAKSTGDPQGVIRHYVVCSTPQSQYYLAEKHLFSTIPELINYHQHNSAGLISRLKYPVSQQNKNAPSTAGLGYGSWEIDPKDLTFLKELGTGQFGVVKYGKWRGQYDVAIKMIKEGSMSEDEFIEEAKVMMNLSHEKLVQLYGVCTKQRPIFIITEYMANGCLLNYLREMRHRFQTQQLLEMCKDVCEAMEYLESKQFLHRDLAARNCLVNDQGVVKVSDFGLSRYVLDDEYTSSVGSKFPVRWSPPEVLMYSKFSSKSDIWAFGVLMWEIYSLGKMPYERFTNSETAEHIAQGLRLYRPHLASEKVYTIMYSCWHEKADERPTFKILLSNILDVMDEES
Could you please mark Condition met for values of IC50 below 0.8 µM and Condition not met for values at or above it?

Smiles data | Test system | Category label
CC(C)CN1CCN(Cc2ccc(-c3ccnc(Nc4cnn(CCO)c4)n3)cc2Cl)C(=O)C1 | Tyrosine-protein kinase BTK (Homo sapiens) | Condition not met
Cc1cc(-c2ccnc(Nc3cnn(C)c3)n2)ccc1CN1CCN(CC2CCC2)CC1=O | Tyrosine-protein kinase BTK (Homo sapiens) | Condition not met
Cc1cc(-c2ccnc(Nc3cnn(CCO)c3)n2)ccc1CN1CCN(CC(C)C)CC1=O | Tyrosine-protein kinase BTK (Homo sapiens) | Condition met
Cc1cc(-c2ccnc(Nc3cnn(C)c3)n2)ccc1CN1CCN(CC(C)C)CC1=O | Tyrosine-protein kinase BTK (Homo sapiens) | Condition met

// query Criterion: IC50 strictly below 0.8 µM. Is it met by `Cc1cc(-c2ccnc(Nc3cnn(C4CN(C)C4)c3)n2)ccc1CN1CCN(CC(C)C)CC1=O` ?
// result Condition met

// query Criterion: IC50 strictly below 0.8 µM. Is it met by `Cc1cc(-c2ccnc(Nc3cnn(C4CN(C)C4)c3)n2)ccc1CN1CCN(CC(C)(C)C)CC1=O` ?
// result Condition not met

// query Criterion: IC50 strictly below 0.8 µM. Is it met by `CC(C)(C)CN1CCN(Cc2ccc(-c3ccnc(Nc4cnn(CCO)c4)n3)cc2C(F)(F)F)C(=O)C1` ?
// result Condition met

// query Criterion: IC50 strictly below 0.8 µM. Is it met by `Cc1cc(-c2ccnc(Nc3cnn(C)c3)n2)ccc1CN1CCN(CC(C)(C)C)CC1=O` ?
// result Condition not met

// query Criterion: IC50 strictly below 0.8 µM. Is it met by `CC(C)CN1CCN(Cc2ccc(-c3ccnc(Nc4cnn(CCO)c4)n3)cc2C(F)(F)F)C(=O)C1` ?
// result Condition met

====

target: Cytochrome P450 1A2 (Homo sapiens); assay: Inhibition of human CYP1A2; assay type: ADME
Sequence (P05177 whole entry): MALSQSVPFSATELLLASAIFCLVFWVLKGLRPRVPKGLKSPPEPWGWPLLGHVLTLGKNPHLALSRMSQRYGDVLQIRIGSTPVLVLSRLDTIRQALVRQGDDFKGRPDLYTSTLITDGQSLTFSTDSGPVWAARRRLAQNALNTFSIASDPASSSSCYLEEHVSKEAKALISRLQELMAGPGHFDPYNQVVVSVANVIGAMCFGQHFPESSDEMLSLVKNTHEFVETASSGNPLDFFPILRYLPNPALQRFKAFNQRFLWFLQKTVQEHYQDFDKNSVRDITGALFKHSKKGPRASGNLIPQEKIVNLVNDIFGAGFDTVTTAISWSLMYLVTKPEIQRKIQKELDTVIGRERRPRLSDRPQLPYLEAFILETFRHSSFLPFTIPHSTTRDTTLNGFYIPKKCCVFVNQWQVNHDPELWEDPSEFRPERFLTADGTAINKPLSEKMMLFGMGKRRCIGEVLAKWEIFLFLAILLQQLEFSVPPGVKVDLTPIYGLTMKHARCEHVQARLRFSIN
pIC50: −log10 of the molar value.
Metric name: pIC50

// query Hi! What's the reported pIC50 for `C=CC(=O)N(C)CCOc1c(N)ncnc1-c1ccc(CN2CCN(CC(C)C)CC2=O)c(C)c1` on Cytochrome P450 1A2 (Homo sapiens)?
// result < 5.00

====

test: Metabolic stability in rat liver microsomes assessed as intrinsic clearance; format: ADME, Microsome; conditions: read-out: CLH
Listing of entries alongside the reported CLint scaled.

// worked examples, CLint scaled included
Compound | Recorded result
C=CC(=O)N(C)CCOc1cncnc1-c1ccc(CN2CCN(CC(F)(F)F)CC2=O)c(C)c1 | 1110 mL/min/kg
C=CC(=O)N(C)CCOc1cnccc1-c1ccc(CN2CCN(C)CC2=O)c(C)c1 | 620 mL/min/kg

// query Which CLint scaled value is on record for `C=CC(=O)N(C)CCOc1cnccc1-c1ccc(CN2CCN(CC(C)C)CC2=O)c(C)c1` ?
// result 2340 mL/min/kg

// query Which CLint scaled value is on record for `CC(=O)N(C)CCOc1cncnc1-c1ccc(CN2CCN(CC(C)(C)C)CC2=O)c(C)c1` ?
// result 1500 mL/min/kg

// query Which CLint scaled value is on record for `C=CC(=O)N(C)CCOc1cncnc1-c1ccc(CN2CCN(CC3(C)CC3)CC2=O)c(C)c1` ?
// result 2680 mL/min/kg

// query Which CLint scaled value is on record for `C=CC(=O)N(C)CCOc1cnccc1-c1ccc(CN2CCN(CC3CCC3)CC2=O)c(C)c1` ?
// result 2260 mL/min/kg

// query Which CLint scaled value is on record for C=CC(=O)N(C)CCOc1cncnc1-c1ccc(CN2CCN(C3CCOC3)CC2=O)c(F)c1 (stereo not given) ?
// result 308 mL/min/kg
